Give measured Corn plant response rating for each item. Keep answers brief.
System: corn (Zea mays)
Assay: Test A pre-/postemergence: corn
Assay type: in vivo
Conditions: Postemergence, 500 g ai/ha; visual rating on 0 to 100 scale (0 no effect, 100 complete control), approximately ten days

# example entries with known answers
| Compound | Result |
| --- | --- |
| Cc1nn(-c2ccc(F)cc2)nc1Oc1cc(C(F)(F)F)nn1C | 30 |
| CCc1nn(-c2ccc(F)cc2)nc1Cc1ccnc(C(F)(F)F)c1 | 80 |
| COc1nn(-c2ccc(C(F)(F)F)cc2)nc1C(O)c1ccnc(C(F)(F)F)c1 (centres unmarked) | 10 |
| Cc1nn(-c2ccc(C(F)(F)F)cc2)nc1Oc1ccnc(OC(F)F)c1 | 30 |
| Cc1nn(-c2ccc(F)cc2)nc1Oc1nccc(C(F)(F)F)n1 | 0 |
| Cc1nn(-c2ccc(Cl)nc2)nc1C(=O)c1cccc(C(F)(F)F)c1 | 10 |
| COc1nn(-c2ccc(C(F)(F)F)cc2)nc1C(C)(O)c1ccnc(C(F)(F)F)c1 (centres unmarked) | 0 |
| Cc1nn(-c2ccc(C(F)(F)F)cc2)nc1Sc1cccc(C(F)(F)F)c1 | 10 |

For the 4 compounds below, give their Corn plant response rating values.
1. Cc1nn(-c2cccc(C(F)(F)F)c2)nc1Oc1cc(C(F)(F)F)nn1C
2. Cc1nn(-c2nc(Cl)ns2)nc1C(=O)c1cccc(C(F)(F)F)c1
3. Cc1cc(Oc2nn(-c3ccc(F)cc3)nc2C)ccn1
4. COc1nn(-c2ccc(C(F)(F)F)cc2)nc1Cc1ccnc(C(F)F)c1

-- reply
[0, 0, 20, 70]

Provide Corn plant response rating values for the following items, in order.
1. FC(F)(F)c1ccc(-n2nc(Cl)c(Cc3ccnc(C(F)(F)F)c3)n2)cc1
2. Cc1nn(-c2ccc(C(F)(F)F)cc2)nc1Oc1cccc(OC(F)(F)F)c1
3. Cc1nn(-c2ccc(C(F)(F)F)cc2)nc1Cn1cc(C(F)(F)F)cn1

-- reply
1. 50
2. 30
3. 10

Could you tell me Corn plant response rating for each of these compounds? They are listed below.
1. Cc1nn(-c2ccc(C(F)(F)F)cc2)nc1Oc1cncc(C(F)(F)F)c1
2. Cc1nn(-c2ccc(F)cc2)nc1Cn1c(Cl)nc(C(F)(F)F)c1Cl

-- reply
20
10

----------
Test system: wheat (Triticum aestivum)
Experiment: Test A pre-/postemergence: wheat
Format: in vivo
Details: Postemergence, 500 g ai/ha; 0 to 100 scale, 0 is no effect, 100 is complete control
Field: Wheat plant response rating. Provide a value for each of the compounds that follow.
Answers are plain numbers.

| Smiles Record | Numeric Result |
| --- | --- |
| CCCCOc1nn(-c2ccc(C(F)(F)F)cc2)nc1Cc1ccnc(C(F)(F)F)c1 | 20 |

Would you mind giving Wheat plant response rating for every compound in the list below?
1. CCc1nn(-c2ccc(F)cc2F)nc1Oc1ccnc(C(F)F)c1
2. CC(=O)Oc1nn(-c2ccc(C(F)(F)F)cc2)nc1Cc1ccnc(C(F)(F)F)c1
3. CCOCc1nn(-c2ccc(F)cc2)nc1Oc1ccnc(C(F)(F)F)c1

-- reply
20
0
40

----------
Test system: Waterhemp
Experiment: Test C postemergence: waterhemp
Assay type: in vivo, Amaranthus rudis
Conditions: 125 g ai/ha, scale 0 to 100, 0 no effect, 100 complete control
Observable: Plant response rating, Waterhemp
One number for each entry.

Would you mind giving Plant response rating, Waterhemp for every molecule in the list below?
1. CCc1nn(-c2ccc(C(F)(F)F)cc2)nc1Oc1ccnc(C(F)(F)F)c1 [Compound 169]
2. CCc1nn(-c2ccc(F)c(F)c2)nc1Oc1ccnc(C(F)(F)F)c1 [Compound 171]
3. CCOc1nn(-c2ccc(Cl)cc2)nc1Cc1ccnc(C(F)(F)F)c1 [Compound 188]
4. CCCc1nn(-c2ccc(F)c(F)c2)nc1Oc1ccnc(C(F)(F)F)c1 [Compound 172]

-- reply
1. 80
2. 75
3. 100
4. 98

-- ask Read off the recorded Plant response rating, Waterhemp for FCc1nn(-c2ccc(F)cc2)nc1Oc1ccnc(C(F)(F)F)c1 [Compound 160]
-- reply 98

----------
Test system: velvetleaf (Abutilon theophrasti)
Assay: Test A pre-/postemergence: velvetleaf
Assay type: in vivo
Settings: Preemergence, 500 g ai/ha; 0 to 100 scale, 0 is no effect, 100 is complete control
Assignment: determine reported Plant response rating, Velvetleaf for the given compounds.
Give bare numbers.

Record excerpt, results attached:
| Compound | Observable | Numeric Result |
| --- | --- | --- |
| Cc1nn(-c2ccc(F)cc2)nc1Oc1ccnc(C(F)(F)F)n1 [Compound 101] | Plant response rating, Velvetleaf | 0 |
| Cc1cnccc1Oc1nn(-c2ccc(F)cc2)nc1C [Compound 87] | Plant response rating, Velvetleaf | 0 |
| Cc1nn(-c2ccc(F)cc2)nc1Cn1c(Cl)nc(C(F)(F)F)c1Cl [Compound 20] | Plant response rating, Velvetleaf | 0 |
| Cc1nn(-c2ccc(F)cc2)nc1Oc1cccc(C(F)(F)F)c1 [Compound 98] | Plant response rating, Velvetleaf | 50 |
| Cc1nn(-c2ccc(C(F)(F)F)cc2)nc1Oc1cc(C(F)(F)F)nn1C [Compound 104] | Plant response rating, Velvetleaf | 30 |

Batch request: Plant response rating, Velvetleaf per item, same order as input.
1. COc1nn(-c2ccc(F)cc2)nc1C(=O)c1ccnc(C(F)(F)F)c1 [Compound 24]
2. COc1nn(-c2ccc(C(F)(F)F)cc2)nc1C(C)(O)c1ccnc(C(F)(F)F)c1 (stereo not drawn) [Compound 79]

-- reply
1. 0
2. 0

Please state, for each entry, its recorded Plant response rating, Velvetleaf.
1. Cc1nn(-c2ccc(C(F)(F)F)cc2)nc1Oc1ccnc(OCC(F)(F)F)c1 [Compound 77]
2. Cc1nn(-c2cccc(C(F)(F)F)c2)nc1Oc1cc(C(F)(F)F)nn1C [Compound 64]
3. Cc1nn(-c2ccc(Br)cc2)nc1Oc1ccnc(C(F)(F)F)c1 [Compound 53]
4. Cc1nn(-c2ccc(C(F)(F)F)cc2)nc1Cn1cc(C(F)(F)F)nc1Cl [Compound 9]
5. Cc1nn(-c2ccc(C(F)(F)F)cn2)nc1Oc1ccnc(C(F)(F)F)c1 [Compound 23]

-- reply
1: 0; 2: 0; 3: 50; 4: 50; 5: 100

----------
System: wheat (Triticum aestivum)
Assay: Test A pre-/postemergence: wheat
Format: in vivo
Conditions: Postemergence, 125 g ai/ha; 0 to 100 scale, 0 is no effect, 100 is complete control
Record form. Attribute: Wheat plant response rating. Fill in for each entry.
Give bare numbers.

A selection of reference data follows.
| Compound | Observable | Numeric Result |
| --- | --- | --- |
| Cc1nn(-c2ccc(F)c(F)c2)nc1Cc1ccnc(C(F)(F)F)c1 | Wheat plant response rating | 20 |
| COc1nn(-c2ccc(C(F)(F)F)cc2)nc1C(C)(O)c1ccnc(C(F)(F)F)c1 (centres unmarked) | Wheat plant response rating | 0 |
| Cc1nn(-c2ccc(F)cc2)nc1Cn1c(Cl)nc(C(F)(F)F)c1Cl | Wheat plant response rating | 0 |
| CCc1nn(-c2ccc(F)cc2)nc1Cn1ccc(C(F)(F)C(F)(F)F)n1 | Wheat plant response rating | 0 |
| CSc1nn(-c2ccc(F)cc2)nc1Cc1ccnc(C(F)(F)F)c1 | Wheat plant response rating | 20 |

For each of the compounds below, state Wheat plant response rating.
1. COc1nn(-c2ccc(C(F)(F)F)cc2)nc1Cn1nc(C(F)(F)F)cc1C(F)(F)F
2. COc1nn(-c2ccc(C(F)(F)F)cc2)nc1C(F)c1ccnc(C(F)(F)F)c1 (centres unmarked)
3. Cc1nn(-c2ccc(C(F)(F)F)cc2)nc1Oc1ccnc(C(F)(F)F)c1

-- reply
0
20
10

----------
Test system: blackgrass (Alopecurus myosuroides)
Assay: Test C pre-/postemergence: blackgrass
Type: in vivo
Conditions: Preemergence, 62 g ai/ha; scale of 0 to 100, 0 is no effect, 100 is complete control
Record form. Attribute: Plant response rating, Blackgrass. Fill in for each entry.
Answers are plain numbers.

Some molecules with recorded Plant response rating, Blackgrass:
| Smiles Record | Plant response rating, Blackgrass |
| --- | --- |
| CCc1nn(-c2ccc(C(F)(F)F)cc2)nc1Cc1ccnc(C(F)(F)F)c1 | 90 |
| CCOc1nn(-c2ccc(C(F)(F)F)cc2)nc1Cc1ccnc(C(F)(F)F)c1 | 10 |
| FCc1nn(-c2ccc(F)cc2)nc1Oc1ccnc(C(F)(F)F)c1 | 90 |
| CCCc1nn(-c2ccc(C(F)(F)F)cc2)nc1Oc1ccnc(C(F)(F)F)c1 | 95 |
| CCc1nn(-c2ccc(F)c(F)c2)nc1Oc1ccnc(C(F)(F)F)c1 | 98 |
| CCOCc1nn(-c2ccc(F)cc2)nc1Oc1ccnc(C(F)(F)F)c1 | 85 |

State the recorded Plant response rating, Blackgrass for every item in the following list.
1. CCc1nn(-c2ccc(F)cc2)nc1Cc1ccnc(C(F)(F)F)c1
2. CCc1nn(-c2ccc(C(F)(F)F)cc2)nc1Oc1ccnc(C(F)(F)F)c1

-- reply
1: 90; 2: 90
